Values from paper PMC10831936

- assayed_system: CRE (HTR2A)
- assay_notes: CRE pathway sensor luciferase assay, HTR2A transfected
- Assay type: cell-based, Rattus norvegicus
- condition: agonist dose response, PC12 cells, luciferase readout
Counter-ions that a name gives are not always drawn.
readout_name: pEC50
Lab note — pEC50 values are minus log10 of concentrations in M.

// query Value lookup for pEC50; key = NCCc1c[nH]c2ccc(O)cc12 [Serotonin, Serotonin hydrochloride]
// result 6.33

###

- assayed_system: ERBB2/3 (Homo sapiens, UniProt P04626+P21860)
- Sequence (P04626 23-1255): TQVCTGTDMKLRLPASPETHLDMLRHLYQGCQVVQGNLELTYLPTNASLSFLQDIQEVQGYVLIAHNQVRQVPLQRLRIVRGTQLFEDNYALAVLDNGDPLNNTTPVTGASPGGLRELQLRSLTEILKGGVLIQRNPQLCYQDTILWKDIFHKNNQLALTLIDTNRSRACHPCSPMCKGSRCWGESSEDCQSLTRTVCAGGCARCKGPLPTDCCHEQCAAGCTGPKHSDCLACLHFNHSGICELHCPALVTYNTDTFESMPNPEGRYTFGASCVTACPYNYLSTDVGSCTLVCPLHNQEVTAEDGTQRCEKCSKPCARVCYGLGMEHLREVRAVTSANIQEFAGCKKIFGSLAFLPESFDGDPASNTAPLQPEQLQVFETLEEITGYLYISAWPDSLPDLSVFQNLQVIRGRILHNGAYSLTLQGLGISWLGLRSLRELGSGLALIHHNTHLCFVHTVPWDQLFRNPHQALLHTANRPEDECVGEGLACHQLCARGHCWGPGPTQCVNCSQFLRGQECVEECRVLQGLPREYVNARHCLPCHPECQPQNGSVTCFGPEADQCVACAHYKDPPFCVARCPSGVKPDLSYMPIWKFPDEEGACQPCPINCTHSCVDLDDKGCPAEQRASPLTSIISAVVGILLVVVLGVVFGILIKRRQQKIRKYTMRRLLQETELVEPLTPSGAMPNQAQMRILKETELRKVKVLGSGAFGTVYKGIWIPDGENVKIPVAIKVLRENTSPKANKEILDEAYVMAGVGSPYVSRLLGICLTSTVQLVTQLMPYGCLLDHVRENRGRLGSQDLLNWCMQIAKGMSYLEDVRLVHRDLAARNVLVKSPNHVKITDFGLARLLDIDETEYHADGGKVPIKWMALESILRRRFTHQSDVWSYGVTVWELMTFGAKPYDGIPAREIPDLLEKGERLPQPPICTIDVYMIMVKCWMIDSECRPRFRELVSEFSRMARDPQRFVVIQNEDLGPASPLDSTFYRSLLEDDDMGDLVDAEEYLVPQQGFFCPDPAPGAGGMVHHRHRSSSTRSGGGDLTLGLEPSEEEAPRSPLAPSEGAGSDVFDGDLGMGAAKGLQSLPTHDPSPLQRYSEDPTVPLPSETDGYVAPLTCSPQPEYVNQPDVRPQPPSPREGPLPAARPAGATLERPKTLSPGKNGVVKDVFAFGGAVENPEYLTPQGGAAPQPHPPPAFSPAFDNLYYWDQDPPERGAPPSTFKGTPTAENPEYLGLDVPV
- Sequence (P21860 20-1342): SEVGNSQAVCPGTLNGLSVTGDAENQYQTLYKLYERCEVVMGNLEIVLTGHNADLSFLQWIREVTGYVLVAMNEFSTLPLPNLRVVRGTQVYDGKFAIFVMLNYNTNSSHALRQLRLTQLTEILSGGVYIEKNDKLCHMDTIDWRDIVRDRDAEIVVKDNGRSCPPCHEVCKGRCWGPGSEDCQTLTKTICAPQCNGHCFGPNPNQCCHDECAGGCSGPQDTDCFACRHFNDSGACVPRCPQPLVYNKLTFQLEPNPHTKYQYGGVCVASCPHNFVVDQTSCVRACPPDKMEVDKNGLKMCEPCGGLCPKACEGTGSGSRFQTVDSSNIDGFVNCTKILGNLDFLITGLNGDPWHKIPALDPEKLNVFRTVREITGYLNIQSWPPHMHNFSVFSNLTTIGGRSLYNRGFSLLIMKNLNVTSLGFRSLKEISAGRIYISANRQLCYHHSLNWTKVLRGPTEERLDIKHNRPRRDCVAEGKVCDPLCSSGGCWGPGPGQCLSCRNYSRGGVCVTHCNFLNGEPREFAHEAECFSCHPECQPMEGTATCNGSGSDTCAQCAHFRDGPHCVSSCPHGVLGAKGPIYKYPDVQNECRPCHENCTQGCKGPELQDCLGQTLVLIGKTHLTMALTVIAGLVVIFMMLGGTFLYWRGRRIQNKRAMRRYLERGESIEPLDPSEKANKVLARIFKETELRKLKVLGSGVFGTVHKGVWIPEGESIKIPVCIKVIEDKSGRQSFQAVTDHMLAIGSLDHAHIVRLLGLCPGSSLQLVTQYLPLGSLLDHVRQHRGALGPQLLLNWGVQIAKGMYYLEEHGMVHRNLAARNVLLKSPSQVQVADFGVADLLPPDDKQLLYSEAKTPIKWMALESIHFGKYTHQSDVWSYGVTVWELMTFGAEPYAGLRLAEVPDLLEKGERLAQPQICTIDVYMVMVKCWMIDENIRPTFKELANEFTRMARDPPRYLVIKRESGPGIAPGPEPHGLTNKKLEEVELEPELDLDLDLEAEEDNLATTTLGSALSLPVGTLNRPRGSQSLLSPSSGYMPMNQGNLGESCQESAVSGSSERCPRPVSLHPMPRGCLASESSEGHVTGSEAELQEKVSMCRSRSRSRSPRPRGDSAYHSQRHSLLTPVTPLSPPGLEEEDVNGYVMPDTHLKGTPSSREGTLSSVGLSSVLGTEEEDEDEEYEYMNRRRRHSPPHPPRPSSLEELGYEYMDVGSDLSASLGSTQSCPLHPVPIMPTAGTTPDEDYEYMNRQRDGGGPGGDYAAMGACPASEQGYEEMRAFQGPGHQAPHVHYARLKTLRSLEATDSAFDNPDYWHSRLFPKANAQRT
- assay_notes: ERBBprofiler barcoded split TEV assay, ERBB2/3
readout_name: IC50 (nM)
Give just the number in nM; leave the unit off.

COc1cc2ncnc(Nc3cccc(Cl)c3)c2cc1OC = 202
C=CC(=O)N[C@H]1C=C(C)c2c(-c3cnc4ccccc4c3)c3c(N)ncnc3n2C1 [TAS6417, TAS6417 (Zipalertinib)] = 206
CCOc1cc2ncc(C#N)c(Nc3ccc(OCc4ccccn4)c(Cl)c3)c2cc1NC(=O)/C=C/[C@H]1CCCN1C = 92

Read the next record carefully.
// query // fetch ERBB2/3 (Homo sapiens, UniProt P04626+P21860) IC50 for C=CC(=O)N1CCC(Oc2cc3c(Nc4ccc(Cl)c(Cl)c4F)ncnc3cc2OC)CC1 [Poziotinib, Poziotinib (HM781-36B)]
// result 2.63

###

- assayed_system: UniProt Q15303
- Sequence (Q15303 26-1308): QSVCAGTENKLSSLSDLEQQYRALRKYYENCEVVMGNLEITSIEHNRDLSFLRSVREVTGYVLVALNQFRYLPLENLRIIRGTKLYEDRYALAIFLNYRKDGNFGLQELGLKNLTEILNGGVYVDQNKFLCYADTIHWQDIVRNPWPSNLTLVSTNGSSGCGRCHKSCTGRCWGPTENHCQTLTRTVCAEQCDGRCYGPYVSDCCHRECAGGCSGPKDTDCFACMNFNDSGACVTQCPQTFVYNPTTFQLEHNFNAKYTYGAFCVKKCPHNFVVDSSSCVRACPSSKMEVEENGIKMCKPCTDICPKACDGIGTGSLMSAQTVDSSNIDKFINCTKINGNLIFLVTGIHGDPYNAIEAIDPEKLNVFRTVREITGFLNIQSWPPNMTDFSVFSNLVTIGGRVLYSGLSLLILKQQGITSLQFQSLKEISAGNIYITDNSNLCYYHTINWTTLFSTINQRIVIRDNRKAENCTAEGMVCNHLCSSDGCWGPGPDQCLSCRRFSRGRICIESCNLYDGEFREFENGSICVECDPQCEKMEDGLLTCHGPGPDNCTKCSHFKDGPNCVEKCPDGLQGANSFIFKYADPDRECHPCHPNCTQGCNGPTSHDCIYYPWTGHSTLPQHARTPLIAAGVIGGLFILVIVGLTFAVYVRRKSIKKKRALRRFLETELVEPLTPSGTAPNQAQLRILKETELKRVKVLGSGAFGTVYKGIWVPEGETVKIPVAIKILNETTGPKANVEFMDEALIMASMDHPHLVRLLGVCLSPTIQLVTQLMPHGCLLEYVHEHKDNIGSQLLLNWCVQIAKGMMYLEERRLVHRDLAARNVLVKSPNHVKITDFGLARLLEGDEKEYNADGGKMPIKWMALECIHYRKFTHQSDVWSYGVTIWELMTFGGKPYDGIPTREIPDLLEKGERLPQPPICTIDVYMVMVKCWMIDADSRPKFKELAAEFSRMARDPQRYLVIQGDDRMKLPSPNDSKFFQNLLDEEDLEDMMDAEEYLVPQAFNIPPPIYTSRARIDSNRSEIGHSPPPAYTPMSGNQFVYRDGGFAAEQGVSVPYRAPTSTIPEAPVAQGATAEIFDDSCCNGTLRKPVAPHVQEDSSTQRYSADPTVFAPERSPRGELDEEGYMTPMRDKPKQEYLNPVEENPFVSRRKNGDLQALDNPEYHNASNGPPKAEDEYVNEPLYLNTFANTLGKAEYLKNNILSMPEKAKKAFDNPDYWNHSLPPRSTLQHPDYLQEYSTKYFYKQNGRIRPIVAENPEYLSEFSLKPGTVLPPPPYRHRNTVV
- assay_notes: ERBBprofiler barcoded split TEV assay, ERBB4
- condition: ERBB4 UAS (split TEV) IC50, PC12 cells; constant EGF 30 ng/mL, EGFld 10 ng/mL, serotonin 1 μM; 6 h; barcode readout; relative IC50
readout_name: IC50 (nM)
Give just the number in nM; leave the unit off.

Solved cases below.
COc1cc2ncnc(Nc3cccc(Cl)c3)c2cc1OC = 654
C=CC(=O)N[C@H]1C=C(C)c2c(-c3cnc4ccccc4c3)c3c(N)ncnc3n2C1 [TAS6417, TAS6417 (Zipalertinib)] = 91
CCOc1cc2ncc(C#N)c(Nc3ccc(OCc4ccccn4)c(Cl)c3)c2cc1NC(=O)/C=C/[C@H]1CCCN1C = 117

// query Value lookup for IC50; key = C=CC(=O)N1CCC(Oc2cc3c(Nc4ccc(Cl)c(Cl)c4F)ncnc3cc2OC)CC1 [Poziotinib, Poziotinib (HM781-36B)]
// result 3.11

###

- assayed_system: NFAT (HTR2A)
- assay_notes: NFAT pathway sensor luciferase assay, HTR2A transfected
- condition: agonist dose response, PC12 cells, luciferase readout
Where a name gives a salt, the structure may show the parent alone.
readout_name: EC50 (nM)
Give just the number in nM; leave the unit off.

// query Value lookup for EC50; key = NCCc1c[nH]c2ccc(O)cc12 [Serotonin, Serotonin hydrochloride]
// result 61

###

// HTR2A (Homo sapiens, UniProt P28223) IC50 records
Give just the number in nM; leave the unit off.

COc1cc2ncnc(Nc3cccc(Cl)c3)c2cc1OC [AG1478, AG-1478 (Tyrphostin AG-1478)] = 17
C=CC(=O)N1CCC(Oc2cc3c(Nc4ccc(Cl)c(Cl)c4F)ncnc3cc2OC)CC1 [Poziotinib, Poziotinib (HM781-36B)] = 4.56
CCOc1cc2ncc(C#N)c(Nc3ccc(OCc4ccccn4)c(Cl)c3)c2cc1NC(=O)/C=C/[C@H]1CCCN1C [Pyrotinib] = 184

Read the next record carefully.
// query Value lookup for IC50; key = C=CC(=O)N[C@H]1C=C(C)c2c(-c3cnc4ccccc4c3)c3c(N)ncnc3n2C1 [TAS6417, TAS6417 (Zipalertinib)]
// result 444
